PROCEDURE_TEXT: Binding affinity to full length Mycobacterium tuberculosis ClpC1 assessed as dissociation constant by SPR analysis

COMPOUND	Kd (nM)
C/C=C/C[C@@H]1NC(=O)[C@H](CC(C)C)N2C(=O)[C@H](CC(C)[C@H]2OC)N(C)C(=O)[C@H](C)NC(=O)[C@H](Cc2ccc(OC)c([N+](=O)[O-])c2)NC(=O)[C@H](CC(C)C)N(C)C(=O)[C@H](Cc2cn(C(C)(C)[C@H](O)COC)c3ccccc23)NC1=O (stereo partly specified)	40
C/C=C/C[C@@H]1NC(=O)[C@H](CC(C)C)N2C(=O)[C@H](CC(C)[C@H]2OC)N(C)C(=O)[C@H](C)NC(=O)[C@H](Cc2ccc(O)c([N+](=O)[O-])c2)NC(=O)[C@H](CC(C)C)N(C)C(=O)[C@H](Cc2cn(C(C)(C)[C@H](O)COC)c3ccccc23)NC1=O (stereo partly specified)	72
C/C=C/C[C@@H]1NC(=O)[C@H](CC(C)C)N2C(=O)[C@H](CC(C)[C@H]2OC)N(C)C(=O)[C@H](C)NC(=O)[C@H](Cc2ccc(OC)c([N+](=O)[O-])c2)NC(=O)[C@H](CC(C)C)N(C)C(=O)[C@H](Cc2cn(C(C)(C)[C@H]3CO3)c3ccccc23)NC1=O (stereo partly specified)	64
C/C=C/C[C@@H]1NC(=O)[C@H](CC(C)C)N2C=C(C)C[C@@H](C2=O)N(C)C(=O)[C@H](C)NC(=O)[C@H](Cc2ccc(O)c(NC(=O)CCl)c2)NC(=O)[C@H](CC(C)C)N(C)C(=O)[C@H](Cc2cn(C(C)(C)[C@H](O)CCl)c3ccccc23)NC1=O	310
C/C=C/C[C@@H]1NC(=O)[C@H](CC(C)C)N2C(=O)[C@H](C[C@H](C)[C@H]2OCC)N(C)C(=O)[C@H](C)NC(=O)[C@H](Cc2ccc(O)c([N+](=O)[O-])c2)NC(=O)[C@H](CC(C)C)N(C)C(=O)[C@H](Cc2cn(C(C)(C)[C@H](O)CCl)c3ccccc23)NC1=O	87
C/C=C/C[C@@H]1NC(=O)[C@H](CC(C)C)N2C(=O)[C@H](CC(C)[C@H]2O)N(C)C(=O)[C@H](C)NC(=O)[C@H](Cc2ccc(OC)c([N+](=O)[O-])c2)NC(=O)[C@H](CC(C)C)N(C)C(=O)[C@H](Cc2cn(C(C)(C)[C@H]3CO3)c3ccccc23)N(C)C1=O (stereo partly specified)	130

###

PROCEDURE_TEXT: Binding affinity to N-terminal Mycobacterium tuberculosis ClpC1 assessed as dissociation constant by SPR analysis
MEASUREMENT_KIND: Kd (nM)

COMPOUND	MEASUREMENT_KIND	RESULT_UNIT	VALUE_MEASURED
C/C=C/C[C@@H]1NC(=O)[C@H](CC(C)C)N2C=C(C)C[C@@H](C2=O)N(C)C(=O)[C@H](C)NC(=O)[C@H](Cc2ccc3ocnc3c2)NC(=O)[C@H](CC(C)C)N(C)C(=O)[C@H](Cc2cn(C(C)(C)[C@H](O)CCl)c3ccccc23)NC1=O	Kd	nM	300
C/C=C/C[C@@H]1NC(=O)[C@H](CC(C)C)N2C=C(C)C[C@@H](C2=O)N(C)C(=O)[C@H](C)NC(=O)[C@H](Cc2ccc(O)c([N+](=O)[O-])c2)NC(=O)[C@H](CC(C)C)N(C)C(=O)[C@H](Cc2cn(C(C)(C)[C@H](O)CBr)c3ccccc23)NC1=O	Kd	nM	260
C/C=C/C[C@@H]1NC(=O)[C@H](CC(C)C)N2C(=O)[C@H](C[C@@H](C)[C@H]2OCCCC)N(C)C(=O)[C@H](C)NC(=O)[C@H](Cc2ccc(O)c([N+](=O)[O-])c2)NC(=O)[C@H](CC(C)C)N(C)C(=O)[C@H](Cc2cn(C(C)(C)[C@H](O)CCl)c3ccccc23)NC1=O	Kd	nM	210
C/C=C/C[C@@H]1NC(=O)[C@H](CC(C)C)N2C=C(C)C[C@@H](C2=O)N(C)C(=O)[C@H](C)NC(=O)[C@H](Cc2ccc3oc(=O)[nH]c3c2)NC(=O)[C@H](CC(C)C)N(C)C(=O)[C@H](Cc2cn(C(C)(C)[C@H](O)CCl)c3ccccc23)NC1=O	Kd	nM	430
C/C=C/C[C@@H]1NC(=O)[C@H](CC(C)C)N2C=C(C)C[C@@H](C2=O)N(C)C(=O)[C@H](C)NC(=O)[C@H](Cc2ccc(OC(=O)c3ccccc3)c([N+](=O)[O-])c2)NC(=O)[C@H](CC(C)C)N(C)C(=O)[C@H](Cc2cn(C(C)(C)[C@@H](CCl)OC(=O)c3ccccc3)c3ccccc23)NC1=O	Kd	nM	1400
C/C=C/C[C@@H]1NC(=O)[C@H](CC(C)C)N2C(=O)[C@H](C[C@@H](C)[C@@H]2OCCCC)N(C)C(=O)[C@H](C)NC(=O)[C@H](Cc2ccc(O)c([N+](=O)[O-])c2)NC(=O)[C@H](CC(C)C)N(C)C(=O)[C@H](Cc2cn(C(C)(C)[C@H](O)CCl)c3ccccc23)NC1=O	Kd	nM	600
C/C=C/C[C@@H]1NC(=O)[C@H](CC(C)C)N2C(=O)[C@H](CC(C)[C@H]2OC)N(C)C(=O)[C@H](C)NC(=O)[C@H](Cc2ccc(OC(C)=O)c([N+](=O)[O-])c2)NC(=O)[C@H](CC(C)C)N(C)C(=O)[C@H](Cc2cn(C(C)(C)[C@H](O)CCl)c3ccccc23)NC1=O (some centres undefined)	Kd	nM	38
C/C=C/C[C@@H]1NC(=O)[C@H](CC(C)C)N2C(=O)[C@H](C[C@H](C)[C@@H]2OCCCC)N(C)C(=O)[C@H](C)NC(=O)[C@H](Cc2ccc(O)c([N+](=O)[O-])c2)NC(=O)[C@H](CC(C)C)N(C)C(=O)[C@H](Cc2cn(C(C)(C)[C@H](O)CCl)c3ccccc23)NC1=O	Kd	nM	27
C/C=C/C[C@@H]1NC(=O)[C@H](CC(C)C)N2C=C(C)C[C@@H](C2=O)N(C)C(=O)[C@H](C)NC(=O)[C@H](Cc2ccc(O)c([N+](=O)[O-])c2)NC(=O)[C@H](CC(C)C)N(C)C(=O)[C@H](Cc2cn(C(C)(C)[C@H]3CO3)c3ccccc23)NC1=O	Kd	nM	50
C/C=C/C[C@@H]1NC(=O)[C@H](CC(C)C)N2C(=O)[C@H](C[C@@H](C)[C@H]2OCC)N(C)C(=O)[C@H](C)NC(=O)[C@H](Cc2ccc(O)c([N+](=O)[O-])c2)NC(=O)[C@H](CC(C)C)N(C)C(=O)[C@H](Cc2cn(C(C)(C)[C@H](O)CCl)c3ccccc23)NC1=O	Kd	nM	120
C/C=C/C[C@@H]1NC(=O)[C@H](CC(C)C)N2C(=O)[C@H](CC(C)[C@H]2O)N(C)C(=O)[C@H](C)NC(=O)[C@H](Cc2ccc(OC)c([N+](=O)[O-])c2)NC(=O)[C@H](CC(C)C)N(C)C(=O)[C@H](Cc2cn(C(C)(C)[C@H]3CO3)c3ccccc23)N(C)C1=O (some centres undefined)	Kd	nM	120
C/C=C/C[C@@H]1NC(=O)[C@H](CC(C)C)N2C(=O)[C@H](CC(C)[C@H]2OC)N(C)C(=O)[C@H](C)NC(=O)[C@H](Cc2ccc(O)c([N+](=O)[O-])c2)NC(=O)[C@H](CC(C)C)N(C)C(=O)[C@H](Cc2cn(C(C)(C)[C@H](O)CCl)c3ccccc23)NC1=O (some centres undefined)	Kd	nM	66
C/C=C/C[C@@H]1NC(=O)[C@H](CC(C)C)N2C(=O)[C@H](CC(C)[C@H]2O)N(C)C(=O)[C@H](C)NC(=O)[C@H](Cc2ccc(O)c([N+](=O)[O-])c2)NC(=O)[C@H](CC(C)C)N(C)C(=O)[C@H](Cc2cn(C(C)(C)[C@H]3CO3)c3ccccc23)NC1=O (mixture of isomers)	Kd	nM	83
C/C=C/C[C@@H]1NC(=O)[C@H](CC(C)C)N2C(=O)[C@H](CC(C)[C@H]2OC)N(C)C(=O)[C@H](C)NC(=O)[C@H](Cc2ccc(OC(C)=O)c([N+](=O)[O-])c2)NC(=O)[C@H](CC(C)C)N(C)C(=O)[C@H](Cc2cn(C(C)(C)[C@H]3CO3)c3ccccc23)NC1=O (some centres undefined)	Kd	nM	40

###

IC50 values, listed per item
PROCEDURE_TEXT: Cytotoxicity against African green monkey Vero cells
Format: toxicity, cell-based
EXPERIMENTAL_CONDITIONS: African green monkey (Chlorocebus sabaeus)
MEASUREMENT_KIND: IC50

COMPOUND	MEASUREMENT_KIND	VALUE_MEASURED
C/C=C/C[C@@H]1NC(=O)[C@H](CC(C)C)N2C(=O)[C@H](CC(C)[C@H]2OC)N(C)C(=O)[C@H](C)NC(=O)[C@H](Cc2ccc(OC)c([N+](=O)[O-])c2)NC(=O)[C@H](CC(C)C)N(C)C(=O)[C@H](Cc2cn(C(C)(C)[C@H]3CO3)c3ccccc23)NC1=O (some centres not stated)	IC50	100 µM
C/C=C/C[C@@H]1NC(=O)[C@H](CC(C)C)N2C(=O)[C@H](C[C@H](C)[C@@H]2OCCCC)N(C)C(=O)[C@H](C)NC(=O)[C@H](Cc2ccc(O)c([N+](=O)[O-])c2)NC(=O)[C@H](CC(C)C)N(C)C(=O)[C@H](Cc2cn(C(C)(C)[C@H](O)CCl)c3ccccc23)NC1=O	IC50	> 100 µM
C/C=C/C[C@@H]1NC(=O)[C@H](CC(C)C)N2C(=O)[C@H](CC(C)[C@H]2OC)N(C)C(=O)[C@H](C)NC(=O)[C@H](Cc2ccc(O)c([N+](=O)[O-])c2)NC(=O)[C@H](CC(C)C)N(C)C(=O)[C@H](Cc2cn(C(C)(C)[C@H](O)COC)c3ccccc23)NC1=O (some centres not stated)	IC50	> 100 µM
C/C=C/C[C@@H]1NC(=O)[C@H](CC(C)C)N2C(=O)[C@H](CC(C)[C@H]2OC)N(C)C(=O)[C@H](C)NC(=O)[C@H](Cc2ccc(OC)c([N+](=O)[O-])c2)NC(=O)[C@H](CC(C)C)N(C)C(=O)[C@H](Cc2cn(C(C)(C)[C@H](O)COC)c3ccccc23)NC1=O (some centres not stated)	IC50	83 µM
C/C=C/C[C@@H]1NC(=O)[C@H](CC(C)C)N2C=C(C)C[C@@H](C2=O)N(C)C(=O)[C@H](C)NC(=O)[C@H](Cc2ccc(O)c([N+](=O)[O-])c2)NC(=O)[C@H](CC(C)C)N(C)C(=O)[C@H](Cc2cn(C(C)(C)[C@H](O)CBr)c3ccccc23)NC1=O	IC50	> 100 µM
C/C=C/C[C@@H]1NC(=O)[C@H](CC(C)C)N2C(=O)[C@H](CC(C)[C@H]2OC)N(C)C(=O)[C@H](C)NC(=O)[C@H](Cc2ccc(O)c([N+](=O)[O-])c2)NC(=O)[C@H](CC(C)C)N(C)C(=O)[C@H](Cc2cn(C(C)(C)[C@H]3CO3)c3ccccc23)NC1=O (some centres not stated)	IC50	> 100 µM
C/C=C/C[C@@H]1NC(=O)[C@H](CC(C)C)N2C=C(C)C[C@@H](C2=O)N(C)C(=O)[C@H](C)NC(=O)[C@H](Cc2ccc(OC(=O)c3ccccc3)c([N+](=O)[O-])c2)NC(=O)[C@H](CC(C)C)N(C)C(=O)[C@H](Cc2cn(C(C)(C)[C@@H](CCl)OC(=O)c3ccccc3)c3ccccc23)NC1=O	IC50	> 100 µM
